Target: T1, 4H4001-bH
T1 chain: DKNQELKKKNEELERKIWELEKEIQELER
Experiment: two-hybrid library CCNG1;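 further: natural log of median RNA to DNA barcode read ratio; higher means stronger binding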
attribute measured: interaction score
Would you mind answering with just the numeric figure?

>>> recorded_measurement("DENQELKKKIEELERKIWELEKENQELKR [4H1828-bH]")
0.309
>>> recorded_measurement("DEIQELEKKIEELKRENWELEKEIQELKR [4H338-bH]")
0.346
>>> recorded_measurement("DENQELKKKIEELERKNWELEKKIQELER [4H1845-bH]")
-1.03
>>> recorded_measurement("DENQELEKKIEELKRENWELKKEIQELER [4H1369-bH]")
-0.331
>>> recorded_measurement("DKIQELKKENEELERKIWELKKEIQELER [4H2729-bH]")
-0.467

QUERY: For DENQELEKKNEELERKIWELEKKIQELKR [4H1446-bH] , write its interaction score.
RESULT: 1.24

QUERY: For DKIQELKKENEELEREIWELKKEIQELER [4H2697-bH] , write its interaction score.
RESULT: -0.578

QUERY: For DENQELEKENEELKRKIWELKKEIQELER [4H1257-bH] , write its interaction score.
RESULT: -0.377

QUERY: For DKIQELKKEIEELERKNWELKKEIQELKR [4H2618-bH] , write its interaction score.
RESULT: 0.338

QUERY: For DKNQELKKKIEELEREIWELEKENQELER [4H3843-bH] , write its interaction score.
RESULT: -0.099

QUERY: For DKIQELKKEIEELKRKIWELKKENQELER [4H2667-bH] , write its interaction score.
RESULT: -2.94

QUERY: For DKNQELKKENEELKREIWELEKKIQELKR [4H3782-bH] , write its interaction score.
RESULT: 0.67

QUERY: For DKIQELKKEIEELERENWELKKEIQELER [4H2585-bH] , write its interaction score.
RESULT: -0.0821

QUERY: For DENQELEKKIEELERKIWELKKKNQELKR [4H1328-bH] , write its interaction score.
RESULT: 1.01

QUERY: For DKNQELKKEIEELERENWELEKKIQELKR [4H3606-bH] , write its interaction score.
RESULT: 0.174

QUERY: For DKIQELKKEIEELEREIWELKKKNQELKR [4H2576-bH] , write its interaction score.
RESULT: 1.28
